meta.source: patent US6376510B1

- Tested on: anesthetized rats (evoked responses of anterior tibial muscle)
- Assay Procedure: In vivo neuromuscular block and cardiovascular side effects, anesthetized rat (Example 8, Table 3)
- Conditions Used: rat; time to 80-85% neuromuscular block
Measured Property: Onset (min)
One number for each entry, in min.

Record excerpt, results attached:
- Compound: "CC(=O)Oc1ccc(C[N+]2(C)C3CCCC2CC(OC(=O)CCCC(=O)OC2CC4CCCC(C2)[N+]4(C)Cc2ccc(OC(C)=O)c(OC(C)=O)c2)C3)cc1OC(C)=O.[Br-].[Br-] (centres unmarked)"
  Reported Measurement: 0.6
- Compound: "COc1cc(C[N+]2(C)[C@@H]3CC[C@H]2C[C@@H](OC(=O)C2CCCC(C(=O)O[C@H]4C[C@H]5CC[C@@H](C4)[N+]5(C)Cc4ccc(OC(C)=O)c(OC)c4)C2)C3)ccc1OC(C)=O.[Br-].[Br-] (some centres unmarked)"
  Reported Measurement: 0.55
- Compound: "CCC(=O)Oc1ccc(C[N+]2(C)C3CCCC2CC(OC(=O)CCCCC(=O)OC2CC4CCCC(C2)[N+]4(C)Cc2ccc(OC(=O)CC)c(OC(=O)CC)c2)C3)cc1OC(=O)CC.[Br-].[Br-] (centres unmarked)"
  Reported Measurement: 0.4

Please look at the items below and tell me Onset for each one, in order.
1. C[N+]1(Cc2ccccc2)[C@@H]2CC[C@H]1C[C@@H](OC(=O)CCCC(=O)O[C@H]1C[C@H]3CC[C@@H](C1)[N+]3(C)Cc1ccccc1)C2.[Br-].[Br-] (some centres unmarked) [reference compound]
2. CCC(=O)Oc1ccc(C[N+]2(C)[C@@H]3CC[C@H]2C[C@@H](OC(=O)CCCCC(=O)O[C@H]2C[C@H]4CC[C@@H](C2)[N+]4(C)Cc2ccc(OC(=O)CC)c(OC(=O)CC)c2)C3)cc1OC(=O)CC.[Br-].[Br-] (some centres unmarked)
3. C=CC[N+]1([C@H]2C[C@H]3[C@@H]4CC[C@H]5C[C@H](O)[C@@H](N6CCOCC6)C[C@]5(C)[C@H]4CC[C@]3(C)[C@H]2OC(C)=O)CCCC1 [Rocuronium, reference compound]
4. CCC(=O)Oc1ccc(C[N+]2(C)C3CCCC2CC(OC(=O)CCCCCC(=O)OC2CC4CCCC(C2)[N+]4(C)Cc2ccc(OC(=O)CC)c(OC(=O)CC)c2)C3)cc1OC(=O)CC.[Br-].[Br-] (centres unmarked)
5. CC(=O)Oc1ccc(C[N+]2(C)C3CCCC2CC(OC(=O)CCCCCCC(=O)OC2CC4CCCC(C2)[N+]4(C)Cc2ccc(OC(C)=O)c(OC(C)=O)c2)C3)cc1OC(C)=O.[Br-].[Br-] (centres unmarked)

1: 2.5; 2: 0.6; 3: 0.95; 4: 0.5; 5: 0.4

----------
- Tested on: dogs
- Assay Procedure: animal or person
- Format: in vivo
- Conditions Used: dog; time to 80-85% neuromuscular block
Please provide measured Onset for the entries that follow.
Give bare numbers, in min.

- Molecule: "COc1cc(C[N+]2(C)C3CCC2CC(OC(=O)C2C4C=CC(C4)C2C(=O)OC2CC4CCC(C2)[N+]4(C)Cc2ccc(OC(C)=O)c(OC)c2)C3)ccc1OC(C)=O.[Br-].[Br-] (stereo not shown)"
  Onset [min]: 0.63
- Molecule: "COc1cc(C[N+]2(C)[C@@H]3CC[C@H]2C[C@@H](OC(=O)C2CCCC(C(=O)O[C@H]4C[C@H]5CC[C@@H](C4)[N+]5(C)Cc4ccc(OC(C)=O)c(OC)c4)C2)C3)ccc1OC(C)=O.[Br-].[Br-] (stereo partly shown)"
  Onset [min]: 0.75
- Molecule: "CC(=O)Oc1ccc(C[N+]2(C)C3CCCC2CC(OC(=O)CCCC(=O)OC2CC4CCCC(C2)[N+]4(C)Cc2ccc(OC(C)=O)c(OC(C)=O)c2)C3)cc1OC(C)=O.[Br-].[Br-] (stereo not shown)"
  Onset [min]: 0.65

Please look at the items below and tell me Onset for each one, in order.
1. CC(=O)Oc1ccc(C[N+]2(C)[C@@H]3CC[C@H]2C[C@@H](OC(=O)C2CCCC(C(=O)O[C@H]4C[C@H]5CC[C@@H](C4)[N+]5(C)Cc4ccc(OC(C)=O)c(OC(C)=O)c4)C2)C3)cc1OC(C)=O.[Br-].[Br-] (stereo partly shown)
2. CC(=O)Oc1ccc(C[N+]2(C)[C@@H]3CC[C@H]2C[C@@H](OC(=O)C2CCC2C(=O)O[C@H]2C[C@H]4CC[C@@H](C2)[N+]4(C)Cc2ccc(OC(C)=O)c(OC(C)=O)c2)C3)cc1OC(C)=O.[Br-].[Br-] (stereo partly shown)
3. CC(=O)Oc1ccc(C[N+]2(C)[C@@H]3CC[C@H]2C[C@@H](OC(=O)CCCC(=O)O[C@H]2C[C@H]4CC[C@@H](C2)[N+]4(C)Cc2ccc(OC(C)=O)c(OC(C)=O)c2)C3)cc1OC(C)=O.[Br-].[Br-] (stereo partly shown)
4. C=CC[N+]1([C@H]2C[C@H]3[C@@H]4CC[C@H]5C[C@H](O)[C@@H](N6CCOCC6)C[C@]5(C)[C@H]4CC[C@]3(C)[C@H]2OC(C)=O)CCCC1 [Rocuronium, reference compound]

1: 0.75; 2: 0.9; 3: 0.9; 4: 1.9

Please look at the items below and tell me Onset for each one, in order.
1. CC(=O)Oc1ccc(C[N+]2(C)C3CCCC2CC(OC(=O)C2CCC2C(=O)OC2CC4CCCC(C2)[N+]4(C)Cc2ccc(OC(C)=O)c(OC(C)=O)c2)C3)cc1OC(C)=O.[Br-].[Br-] (stereo not shown)
2. CC(=O)Oc1ccc(C[N+]2(C)C3CCCC2CC(OC(=O)CCCCCCC(=O)OC2CC4CCCC(C2)[N+]4(C)Cc2ccc(OC(C)=O)c(OC(C)=O)c2)C3)cc1OC(C)=O.[Br-].[Br-] (stereo not shown)
3. COc1cc(C[N+]2(C)[C@@H]3CC[C@H]2C[C@@H](OC(=O)C2CCC2C(=O)O[C@H]2C[C@H]4CC[C@@H](C2)[N+]4(C)Cc2ccc(OC(C)=O)c(OC)c2)C3)ccc1OC(C)=O.[Br-].[Br-] (stereo partly shown)

[0.75, 0.8, 0.85]

----------
Please provide measured ΔH (change in heart rate) for the entries that follow.
- Tested on: dogs
- Assay Procedure: animal or person
- Type: in vivo
- Conditions Used: dog, in vivo
Numbers only, in %.

Record excerpt, results attached:
- Molecule: "CC(=O)Oc1ccc(C[N+]2(C)C3CCCC2CC(OC(=O)CCCC(=O)OC2CC4CCCC(C2)[N+]4(C)Cc2ccc(OC(C)=O)c(OC(C)=O)c2)C3)cc1OC(C)=O.[Br-].[Br-] (centres unmarked)"
  ΔH (change in heart rate) / %: 50
- Molecule: "C=CC[N+]1([C@H]2C[C@H]3[C@@H]4CC[C@H]5C[C@H](O)[C@@H](N6CCOCC6)C[C@]5(C)[C@H]4CC[C@]3(C)[C@H]2OC(C)=O)CCCC1 [Rocuronium, reference compound]"
  ΔH (change in heart rate) / %: 0
- Molecule: "CC(=O)Oc1ccc(C[N+]2(C)C3CCCC2CC(OC(=O)C2CCC2C(=O)OC2CC4CCCC(C2)[N+]4(C)Cc2ccc(OC(C)=O)c(OC(C)=O)c2)C3)cc1OC(C)=O.[Br-].[Br-] (centres unmarked)"
  ΔH (change in heart rate) / %: 27
- Molecule: "CC(=O)Oc1ccc(C[N+]2(C)C3CCCC2CC(OC(=O)CCCCCCC(=O)OC2CC4CCCC(C2)[N+]4(C)Cc2ccc(OC(C)=O)c(OC(C)=O)c2)C3)cc1OC(C)=O.[Br-].[Br-] (centres unmarked)"
  ΔH (change in heart rate) / %: 60

Record COc1cc(C[N+]2(C)C3CCC2CC(OC(=O)C2C4C=CC(C4)C2C(=O)OC2CC4CCC(C2)[N+]4(C)Cc2ccc(OC(C)=O)c(OC)c2)C3)ccc1OC(C)=O.[Br-].[Br-] (centres unmarked) : what is its ΔH (change in heart rate) with dogs?
40

----------
- Test system: anesthetized rats (evoked responses of anterior tibial muscle)
- Assay Procedure: In vivo neuromuscular block and cardiovascular side effects, anesthetized rat (Example 8, Table 3)
- Conditions Used: rat, in vivo
Please provide measured ΔBP (change in arterial blood pressure) for the entries that follow.

- Molecule: "CCC(=O)Oc1ccc(C[N+]2(C)C3CCCC2CC(OC(=O)C2CCC2C(=O)OC2CC4CCCC(C2)[N+]4(C)Cc2ccc(OC(=O)CC)c(OC(=O)CC)c2)C3)cc1OC(=O)CC.[Br-].[Br-] (centres unmarked)"
  Measured Property: "ΔBP (change in arterial blood pressure)"
  Reported Measurement: "0%"
- Molecule: "CCC(=O)Oc1ccc(C[N+]2(C)C3CCCC2CC(OC(=O)CCCCCC(=O)OC2CC4CCCC(C2)[N+]4(C)Cc2ccc(OC(=O)CC)c(OC(=O)CC)c2)C3)cc1OC(=O)CC.[Br-].[Br-] (centres unmarked)"
  Measured Property: "ΔBP (change in arterial blood pressure)"
  Reported Measurement: "−6%"
- Molecule: "CC(=O)Oc1ccc(C[N+]2(C)C3CCCC2CC(OC(=O)C2CCC2C(=O)OC2CC4CCCC(C2)[N+]4(C)Cc2ccc(OC(C)=O)c(OC(C)=O)c2)C3)cc1OC(C)=O.[Br-].[Br-] (centres unmarked)"
  Measured Property: "ΔBP (change in arterial blood pressure)"
  Reported Measurement: "0%"
- Molecule: "CC(=O)Oc1ccc(C[N+]2(C)C3CCCC2CC(OC(=O)CCCC(=O)OC2CC4CCCC(C2)[N+]4(C)Cc2ccc(OC(C)=O)c(OC(C)=O)c2)C3)cc1OC(C)=O.[Br-].[Br-] (centres unmarked)"
  Measured Property: "ΔBP (change in arterial blood pressure)"
  Reported Measurement: "0%"

Proceeding to the next molecule to report its ΔBP (change in arterial blood pressure).
Field request: ΔBP (change in arterial blood pressure) | item: CC(=O)Oc1ccc(C[N+]2(C)C3CCCC2CC(OC(=O)CCCCCC(=O)OC2CC4CCCC(C2)[N+]4(C)Cc2ccc(OC(C)=O)c(OC(C)=O)c2)C3)cc1OC(C)=O.[Br-].[Br-] (centres unmarked)
0%
